Field: shrunken log2 fold change. Provide a value for each of the sequences that follow.
- Test system: Escherichia coli TOP10
- EXPERIMENT_DESCRIPTION: shrunken log2 fold change of peptide-encoding DNA abundance (4.5 h post-induction vs induction); higher = less antimicrobial activity (less host growth inhibition)
- PARTICULARS: time post-induction: 4.5 h; library: site-saturation at positions 5, 18, 19, 20
Please state the value as a number alone, without comment.

Consider the sequence RRIRDRPPRLPRPRPRPSNNPRP . State its measured shrunken log2 fold change. -0.487

Return shrunken log2 fold change (reported value) for this sequence: RRIRMRPPRLPRPRPRPQAWPRP -0.0331

// fetch shrunken log2 fold change given entry RRIRYRPPRLPRPRPRPLWSPRP 0.0381

Assign shrunken log2 fold change to the following record: RRIRCRPPRLPRPRPRPYMRPRP -0.142

Indicate the recorded shrunken log2 fold change value for this sequence: RRIRTRPPRLPRPRPRPERVPRP 0.296

Find the measured shrunken log2 fold change of RRIRQRPPRLPRPRPRPGHKPRP and report it. -0.00306

Tell me its shrunken log2 fold change given RRIRGRPPRLPRPRPRPSYNPRP as the entry. 0.0742

Write down shrunken log2 fold change measured for item RRIRIRPPRLPRPRPRPPHCPRP -0.391

Item RRIRERPPRLPRPRPRPHGTPRP : provide shrunken log2 fold change 0.0284

Read off the recorded shrunken log2 fold change for RRIRFRPPRLPRPRPRPHHWPRP -0.499

Return value of shrunken log2 fold change for input RRIRCRPPRLPRPRPRPGHEPRP , no commentary. 0.00505

Provide only the value of recorded shrunken log2 fold change for RRIRHRPPRLPRPRPRPRKPPRP 0.321

Given RRIRFRPPRLPRPRPRPMHWPRP , respond with its shrunken log2 fold change. 0.325

Consider the sequence RRIRERPPRLPRPRPRPNYPPRP and give its recorded shrunken log2 fold change. -0.509

Please report the measured shrunken log2 fold change for RRIRYRPPRLPRPRPRPKIAPRP -0.404

Query shrunken log2 fold change for RRIRDRPPRLPRPRPRPGIWPRP 0.252

Quickly give me recorded shrunken log2 fold change for RRIRVRPPRLPRPRPRPRFEPRP 0.376

Output shrunken log2 fold change of RRIRIRPPRLPRPRPRPECMPRP -0.428

Return shrunken log2 fold change (reported value) for this sequence: RRIRARPPRLPRPRPRPCEAPRP 0.762

Hello, please tell me recorded shrunken log2 fold change for this one: RRIRVRPPRLPRPRPRPEIHPRP -0.0841

Determine its reported shrunken log2 fold change: RRIRARPPRLPRPRPRPLTVPRP 0.242

Query shrunken log2 fold change for RRIRYRPPRLPRPRPRPKNVPRP 0.0242

Note shrunken log2 fold change for the sequence shown: RRIRDRPPRLPRPRPRPDDEPRP 0.425

----------
- Test system: Escherichia coli TOP10;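 also: peptides expressed intracellularly from a pBAD plasmid library in pooled LB shake-flask culture, induced with 0.3% L-arabinose, DNA abundance read by NGS, three biological replicates, DESeq2 with apeglm shrinkage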
- EXPERIMENT_DESCRIPTION: shrunken log2 fold change of peptide-encoding DNA abundance (4.5 h post-induction vs induction); higher = less antimicrobial activity (less host growth inhibition)
- PARTICULARS: time post-induction: 4.5 h; library: site-saturation at positions 5, 18, 19, 20
Task for the reader: assign each of the following sequences its reported shrunken log2 fold change.
# respond with the number and nothing more

Provide measured shrunken log2 fold change value, entry: RRIRMRPPRLPRPRPRPPRCPRP 1.38

Let me know recorded shrunken log2 fold change for RRIRERPPRLPRPRPRPIIFPRP , thanks. -0.352

Give the reported value of shrunken log2 fold change for this record: RRIRIRPPRLPRPRPRPWRWPRP 0.182

Given the sequence RRIRGRPPRLPRPRPRPRQQPRP , write its reported shrunken log2 fold change. 0.614

Fill in shrunken log2 fold change for record RRIRMRPPRLPRPRPRPRNLPRP 0.0196

Supply shrunken log2 fold change value. Item: RRIRLRPPRLPRPRPRPYLTPRP -0.663

For RRIRIRPPRLPRPRPRPRPKPRP , write its shrunken log2 fold change. 0.567

Please report shrunken log2 fold change for the following sequence: RRIRKRPPRLPRPRPRPEQYPRP 0.104

Answer with reported shrunken log2 fold change of RRIRLRPPRLPRPRPRPKVNPRP 0.0232

Give recorded shrunken log2 fold change. RRIRFRPPRLPRPRPRPNVRPRP 0.0987

State its shrunken log2 fold change: RRIRARPPRLPRPRPRPWINPRP -0.218

Give a short answer stating reported shrunken log2 fold change for RRIRERPPRLPRPRPRPPNRPRP . -0.289

// fetch shrunken log2 fold change given entry RRIRIRPPRLPRPRPRPVNSPRP -0.319

# return recorded shrunken log2 fold change for input RRIRMRPPRLPRPRPRPLLYPRP 0.0402

Recall and state the measured shrunken log2 fold change for RRIRLRPPRLPRPRPRPMTNPRP . -0.0811

Note shrunken log2 fold change for the sequence shown: RRIRDRPPRLPRPRPRPMIKPRP -0.222

Look up shrunken log2 fold change of RRIRIRPPRLPRPRPRPYPTPRP and report it. -0.159

Specify shrunken log2 fold change for RRIRQRPPRLPRPRPRPSLLPRP and stop. -0.216

Give shrunken log2 fold change for the following sequence: RRIRARPPRLPRPRPRPTPVPRP 0.696

Please report the measured shrunken log2 fold change for RRIRNRPPRLPRPRPRPFGQPRP -0.282

Recall and state the measured shrunken log2 fold change for RRIRYRPPRLPRPRPRPWPFPRP . -0.218

Return reported shrunken log2 fold change. Input sequence: RRIRYRPPRLPRPRPRPADDPRP -0.0179

Consider the sequence RRIRMRPPRLPRPRPRPHGNPRP and give its recorded shrunken log2 fold change. -0.184

Give the reported shrunken log2 fold change for this sequence. RRIRDRPPRLPRPRPRPFHWPRP -0.0944

Give the value of shrunken log2 fold change reported for the following: RRIRIRPPRLPRPRPRPEYAPRP -0.0426

Return shrunken log2 fold change (reported value) for this sequence: RRIRPRPPRLPRPRPRPNRPPRP 0.274

State, in one line, measured shrunken log2 fold change of RRIRKRPPRLPRPRPRPSWVPRP -0.0457

Provide shrunken log2 fold change value for the following sequence: RRIRYRPPRLPRPRPRPAQSPRP 0.256

Tell me its shrunken log2 fold change given RRIRCRPPRLPRPRPRPIESPRP as the entry. 0.204

Please indicate shrunken log2 fold change recorded for RRIRNRPPRLPRPRPRPDGPPRP 0.01

Quickly give me recorded shrunken log2 fold change for RRIRHRPPRLPRPRPRPCPLPRP -0.667

Assign shrunken log2 fold change to the following record: RRIRIRPPRLPRPRPRPQTFPRP -0.156

Give recorded shrunken log2 fold change. RRIRFRPPRLPRPRPRPAPVPRP 0.323

Answer with reported shrunken log2 fold change of RRIRMRPPRLPRPRPRPFYVPRP -0.514

Recall and state the measured shrunken log2 fold change for RRIRTRPPRLPRPRPRPQGCPRP . 0.0515

Specify shrunken log2 fold change for RRIRTRPPRLPRPRPRPHTMPRP and stop. -0.406

Dear colleague, please send me the reported shrunken log2 fold change for RRIRPRPPRLPRPRPRPAYCPRP when you can. -0.215

Supply shrunken log2 fold change value. Item: RRIRIRPPRLPRPRPRPVPMPRP -0.143

Return reported shrunken log2 fold change. Input sequence: RRIRERPPRLPRPRPRPLHYPRP -0.249

Indicate the recorded shrunken log2 fold change value for this sequence: RRIRIRPPRLPRPRPRPERDPRP -0.175

Respond only with shrunken log2 fold change recorded for RRIRKRPPRLPRPRPRPSMDPRP 0.0069

Output shrunken log2 fold change of RRIRARPPRLPRPRPRPLTIPRP 0.0223

Consider the sequence RRIRVRPPRLPRPRPRPADPPRP and give its recorded shrunken log2 fold change. 0.0239

Give the measured shrunken log2 fold change for RRIRPRPPRLPRPRPRPYHSPRP -0.659

Recall and state the measured shrunken log2 fold change for RRIRMRPPRLPRPRPRPMFMPRP . 0.0101

Quickly give me recorded shrunken log2 fold change for RRIRFRPPRLPRPRPRPSPFPRP 0.0724

Please give measured shrunken log2 fold change of the following entry: RRIRNRPPRLPRPRPRPFPVPRP -0.125

Using known records, supply shrunken log2 fold change for RRIRYRPPRLPRPRPRPGGAPRP 0.359

Entry RRIRHRPPRLPRPRPRPFPYPRP needs its shrunken log2 fold change filled in; supply it. -0.0859

Consider the sequence RRIRMRPPRLPRPRPRPIAAPRP and give its recorded shrunken log2 fold change. 2.71

Please supply the value of reported shrunken log2 fold change for the item RRIRTRPPRLPRPRPRPCITPRP -0.96

Return shrunken log2 fold change for the following sequence: RRIRGRPPRLPRPRPRPLEQPRP 0.435

Return shrunken log2 fold change (reported value) for this sequence: RRIRLRPPRLPRPRPRPVHSPRP 0.00898

For RRIRGRPPRLPRPRPRPIDRPRP , write its shrunken log2 fold change. 0.127

Identify measured shrunken log2 fold change associated with RRIRHRPPRLPRPRPRPYYQPRP -0.416

Assign shrunken log2 fold change to the following record: RRIRLRPPRLPRPRPRPGGSPRP 0.259

Return the recorded shrunken log2 fold change value; entry: RRIRIRPPRLPRPRPRPSIDPRP -0.342

Indicate the recorded shrunken log2 fold change value for this sequence: RRIRTRPPRLPRPRPRPMCHPRP -0.228

# return recorded shrunken log2 fold change for input RRIRPRPPRLPRPRPRPSMCPRP -0.0117

Output shrunken log2 fold change of RRIRRRPPRLPRPRPRPAYHPRP 0.0468
